- Tested on: blackgrass (Alopecurus myosuroides)
- test.description: Test A1 preemergence, blackgrass
- Type: in vivo
- conditions: 31 g ai/ha, 0 to 100 scale (0 no effect, 100 complete control)
quantity.measured: Plant response rating, Blackgrass

Provide the reported Plant response rating, Blackgrass of each entry below, same order.
1. Cc1c(C(=O)N2CCCCC2)cc(N(COC(=O)C(C)(C)C)S(=O)(=O)C(F)(F)F)c(C)c1C
2. COC1CCN(C(=O)c2cc(N(COC(=O)C(C)(C)C)S(=O)(=O)C(F)(F)F)c(C)c(C)c2C)CC1
3. Cc1cc(F)c(C2=NOC3CCCC23)cc1NS(=O)(=O)C(F)(F)F (centres unmarked)
4. Cc1cc(C2CC2)c(C2=NOC3CCCC23)cc1NS(=O)(=O)C(F)(F)F (centres unmarked)
5. Cc1cc(C)c(C2=NOC3(C)CCCC23)cc1NS(=O)(=O)C(F)(F)F (centres unmarked)

Return:
1. 0
2. 0
3. 0
4. 0
5. 60

Origin of the recorded values: patent US20230278972A1
